Items are presented alongside their recorded growth.
test system: HS 578T breast; test: NCI-60 one-dose screen, 48 h (100 = growth as untreated, 0 = no growth, -100 = all killed); conditions: 10 µM unless noted
This is part of a sample that, as a whole, favours compounds with a hit. Of some 83,000 tested, about 20% had one in any assay.
measurement-label: growth (%)

compound: COC1C(=O)CCC2(CO2)C1(O)C1(C)OC1CCC(C)C (centres undefined)
target-system: HS 578T breast
endpoint-result: 90.5

compound: N#Cc1ccc(OC(=O)Nc2c(Cl)cc(Cl)cc2Cl)cc1
target-system: HS 578T breast
endpoint-result: 106

compound: CCCC(OC(C)=O)c1ccc2c(c1)OCO2 (centres undefined)
target-system: HS 578T breast
endpoint-result: 99.6

compound: Cc1ccc(C(C)C)c(OCC(=O)O)c1
target-system: HS 578T breast
endpoint-result: 101

###

system: SK-OV-3 ovarian; experiment: NCI-60 one-dose screen, 48 h; conditions: 10 µM unless noted
The panel holds about 83,000 compounds, 20% with a hit somewhere; the sample as a whole holds those more often. Calls of active or inactive are those of the source. The calls were made as follows: active = growth percent below 10; inactive = the rest.
Possible outcomes: 1 (yes) = active, 0 (no) = inactive

compound: Cc1ccc(S(=O)(=O)CCCl)cc1
label-class: 0 (no)

compound: Cc1ccc(S(=O)(=O)Oc2ccc3sc4c(CO)ccc(NCCN(C)C)c4c(=O)c3c2)cc1
label-class: 1 (yes)

compound: CCN(CC)c1ccc2nc3ccc(N=Nc4ccc(N(C)C)cc4)cc3[n+](-c3ccccc3)c2c1
label-class: 1 (yes)

compound: CC(=O)N(CCCCCCN(C(C)=O)C(C)=O)C(C)=O
label-class: 0 (no)

compound: CC(=O)[C@@]1(O)CC[C@H]2[C@@H]3CC[C@@H]4CC(=O)CC[C@]4(C)[C@H]3[C@@H](O)C[C@@]21C
label-class: 0 (no)

compound: CNc1ccccc1C(N)=O
label-class: 0 (no)

compound: S=c1nc(-c2ccccn2)c(-c2ccccn2)n[nH]1
label-class: 0 (no)

compound: COc1ccc(Br)c(C=O)c1
label-class: 0 (no)

compound: CC1CC(C)S(=O)(=O)C1 (configuration not stated)
label-class: 0 (no)

compound: CC(C)(N)CO[C@H]1C[C@H]2CC[C@@]1(C)C2(C)C
label-class: 0 (no)

compound: Nc1ccc(F)cc1F
label-class: 0 (no)

compound: O=C(O)C1CSC(c2ccccc2)N1 (configuration not stated)
label-class: 0 (no)

compound: COc1ccc(-c2csc(NC(=O)Nc3nc(-c4ccc(OC)cc4)cs3)n2)cc1
label-class: 0 (no)

compound: Nc1cc(N)ncn1
label-class: 0 (no)

compound: CCCc1cccc(CCC)c1NC(=O)Nc1cc(Cl)cc(Cl)c1
label-class: 0 (no)

compound: CC(C)NC(=O)OCc1c(COC(=O)NC(C)C)c(-c2ccc(Cl)cc2)n2c1CCC2
label-class: 0 (no)

compound: CC12CCC3c4ccc(O)cc4CCC3C1CCC2=O (configuration not stated)
label-class: 0 (no)

compound: NNc1ncccn1
label-class: 0 (no)

compound: COc1ccc(C(=O)/C(=N/Nc2ccccc2)c2ccc(OC)cc2)cc1
label-class: 0 (no)

compound: CC(=O)c1cccs1
label-class: 0 (no)

compound: CC(CC(CCC(=O)O)(c1ccccc1)c1ccccc1)N(C)C (configuration not stated)
label-class: 0 (no)

compound: Cc1ccc2nc(N)nnc2c1
label-class: 0 (no)

compound: Cc1cc(=O)n(Nc2ccccc2)c(O)c1C#N
label-class: 0 (no)

compound: C=CCc1cc(OC)c(OC)c(OC)c1
label-class: 0 (no)

compound: COC(=O)c1ccc([N+](=O)[O-])c(C)c1
label-class: 0 (no)

compound: CC(=O)c1cccc(NS(=O)(=O)c2ccc(C)cc2)c1
label-class: 0 (no)

compound: CCOc1ccc(NC(=S)N2CCC(CCCC3CCN(C(=S)Nc4ccc(OCC)cc4)CC3)CC2)cc1
label-class: 0 (no)

compound: CCOc1ccncc1[N+](=O)[O-]
label-class: 0 (no)

compound: Cc1onc(-c2ccccc2Cl)c1C(=O)Cl
label-class: 0 (no)

compound: CSc1nc2[nH]ncc2c(=O)[nH]1
label-class: 0 (no)

compound: CCCCCCCCCc1ccc(OC(C)=O)cc1
label-class: 0 (no)

compound: CC(CO)(CO)C(=O)O
label-class: 0 (no)

compound: NC(=S)c1c(N)n(C2OC(CO)C(O)C2O)c2ncnc(N)c12 (configuration not stated)
label-class: 1 (yes)

compound: CCCNS(=O)(=O)c1ccc(Cl)cc1
label-class: 0 (no)

compound: CCN(CC)CCN1CNC(=S)NC1
label-class: 0 (no)

compound: C[n+]1c(/C=C\C=C\N2CCCCC2)sc2ccccc21
label-class: 1 (yes)

compound: ClCC(Cl)[C@@H]1CC2C=CC1C2 (some centres not stated)
label-class: 0 (no)

###

test system: COLO 205 colon; test: NCI-60 one-dose screen, 48 h (100 = growth as untreated, 0 = no growth, -100 = all killed); settings: 10 µM unless noted
Compounds without any hit were thinned out: in the full panel of roughly 83,000, 20% have a hit.
measurement-label: growth (%)

molecule: Cc1ccc([N+](=O)[O-])c(C)n1
measurement-label: growth
endpoint-result: 111
--
molecule: Cc1cc(C(=O)c2ccccc2)cc(C)c1O
measurement-label: growth
endpoint-result: 103
--
molecule: O=C(O)Cc1ccccn1
measurement-label: growth
endpoint-result: 97.8
--
molecule: O=C(N/N=C\c1ccc(Cl)cc1Cl)c1ccncc1
measurement-label: growth
endpoint-result: 118
--
molecule: COC1OC(C(O)C(O)CO)C(O)C(O)C1O (centres undefined)
measurement-label: growth
endpoint-result: 111
--
molecule: O=c1cc(Cl)nc2ccccn12
measurement-label: growth
endpoint-result: 127
--
molecule: COc1cccc2c1Cc1ccccc1-2
measurement-label: growth
endpoint-result: 109
--
molecule: CCC(C)c1c(N)n(S(=O)(=O)c2ccc(C)cc2)oc1=O (centres undefined)
measurement-label: growth
endpoint-result: 124
--
molecule: CC(C)c1ccc(C(=O)OCCCl)cc1
measurement-label: growth
endpoint-result: 110

###

test system: PC-3 prostate; assay: NCI-60 one-dose screen, 48 h (100 = growth as untreated, 0 = no growth, -100 = all killed); details: 10 µM unless noted
Compounds without any hit were thinned out: in the full panel of roughly 83,000, 20% have a hit.

compound: Oc1cc(O)c2c(c1)O[C@H](c1ccc(O)c(O)c1)[C@@H](O)C2
growth [%]: 93.3
--
compound: Cc1ccc(Cc2ccc(C)cc2)cc1
growth [%]: 100
--
compound: CC(=O)C1C(=O)C(=O)N(c2ccc(Cl)c(Cl)c2)C1=O (stereo not given)
growth [%]: 96.9
--
compound: CN(C)Cc1ccccn1
growth [%]: 90.3
--
compound: CCOS(=O)(=O)c1ccc([N+](=O)[O-])cc1
growth [%]: 97.9
--
compound: S=c1nc(-c2ccccn2)c(-c2ccccn2)n[nH]1
growth [%]: 97.7
--
compound: CCOP(=O)(NC(c1ccccc1)c1ccccc1)OCC
growth [%]: 82.6
--
compound: c1ccc(Nc2ccccn2)nc1
growth [%]: 95.9
--
compound: O=Cc1ccc(Cl)c(Cl)c1
growth [%]: 94.6
--
compound: CC(=O)C[n+]1ccc(C)cc1Sc1ccccc1C
growth [%]: 91.8
--
compound: O=C1C=C(c2ccccc2)C(O)(c2ccccc2)C1 (stereo not given)
growth [%]: 92.8
--
compound: CCCCCC/C=C\CCCCCCCCCc1cc(O)cc(OC)c1O
growth [%]: 1.77
--
compound: CCCCCCCCCCCCSC1=C(Cl)C(=O)C(OC)=C(OC)C1=O
growth [%]: 23.1
--
compound: C=C(C)[C@@H]1CC[C@]2(CO)CC[C@]3(C)[C@H](CC[C@@H]4[C@@]5(C)CC[C@H](O)C(C)(C)[C@@H]5CC[C@]43C)[C@@H]12
growth [%]: 38.7
--
compound: CC1(C)CC(=O)C=C(N)C1
growth [%]: 93
--
compound: CSc1cnc2ccccc2n1
growth [%]: 89.6
--
compound: C=CC(=O)OC1CCC(C(C)(C)CC)CC1 (stereo not given)
growth [%]: 104
--
compound: COC1=C(OC)C(=O)C(SC/C=C(\C)CCCC(C)CCCC(C)CCCC(C)C)=CC1=O (stereo not given)
growth [%]: 10.8
--
compound: OCCc1ccc(Cl)cc1
growth [%]: 95.5
--
compound: N#CC1(O)CCCCC1
growth [%]: 95.2

###

test system: UACC-62 melanoma; experiment: NCI-60 one-dose screen, 48 h (100 = growth as untreated, 0 = no growth, -100 = all killed); settings: 10 µM unless noted
The panel holds about 83,000 compounds, 20% with a hit somewhere; the sample as a whole holds those more often. Calls of active or inactive are those of the source. The calls were made as follows: active = growth percent below 10; inactive = the rest.

compound: CC1(C)CC(=O)C=C(N)C1
growth: 98.5% (inactive)
//
compound: Cn1c(=O)c2[nH]c(CCCCC(=O)O)nc2n(C)c1=O
growth: 102% (inactive)
//
compound: COC1OC(COC(C)=O)C(OC(C)=O)C(OC(C)=O)C1OC(C)=O (stereo not given)
growth: 86.5% (inactive)
//
compound: Nc1cc(N)ncn1
growth: 99.6% (inactive)
//
compound: C/C(O)=C(/C=N\C(=S)Nc1ccc(S(=O)(=O)Nc2nccs2)cc1)C(=O)Nc1ccccc1C
growth: 81.8% (inactive)
